Source listed as patent US20230295167A1.

Entries and their measured IC50 follow.
# experimental-system: EFGR SVD (Ba/F3 cells) (Homo sapiens, UniProt P00533, INS770SVD)
# Construct: expressed in transfected cells; host or cells: Ba/F3
# Sequence (P00533 with tags, fused parts or gaps INS770SVD): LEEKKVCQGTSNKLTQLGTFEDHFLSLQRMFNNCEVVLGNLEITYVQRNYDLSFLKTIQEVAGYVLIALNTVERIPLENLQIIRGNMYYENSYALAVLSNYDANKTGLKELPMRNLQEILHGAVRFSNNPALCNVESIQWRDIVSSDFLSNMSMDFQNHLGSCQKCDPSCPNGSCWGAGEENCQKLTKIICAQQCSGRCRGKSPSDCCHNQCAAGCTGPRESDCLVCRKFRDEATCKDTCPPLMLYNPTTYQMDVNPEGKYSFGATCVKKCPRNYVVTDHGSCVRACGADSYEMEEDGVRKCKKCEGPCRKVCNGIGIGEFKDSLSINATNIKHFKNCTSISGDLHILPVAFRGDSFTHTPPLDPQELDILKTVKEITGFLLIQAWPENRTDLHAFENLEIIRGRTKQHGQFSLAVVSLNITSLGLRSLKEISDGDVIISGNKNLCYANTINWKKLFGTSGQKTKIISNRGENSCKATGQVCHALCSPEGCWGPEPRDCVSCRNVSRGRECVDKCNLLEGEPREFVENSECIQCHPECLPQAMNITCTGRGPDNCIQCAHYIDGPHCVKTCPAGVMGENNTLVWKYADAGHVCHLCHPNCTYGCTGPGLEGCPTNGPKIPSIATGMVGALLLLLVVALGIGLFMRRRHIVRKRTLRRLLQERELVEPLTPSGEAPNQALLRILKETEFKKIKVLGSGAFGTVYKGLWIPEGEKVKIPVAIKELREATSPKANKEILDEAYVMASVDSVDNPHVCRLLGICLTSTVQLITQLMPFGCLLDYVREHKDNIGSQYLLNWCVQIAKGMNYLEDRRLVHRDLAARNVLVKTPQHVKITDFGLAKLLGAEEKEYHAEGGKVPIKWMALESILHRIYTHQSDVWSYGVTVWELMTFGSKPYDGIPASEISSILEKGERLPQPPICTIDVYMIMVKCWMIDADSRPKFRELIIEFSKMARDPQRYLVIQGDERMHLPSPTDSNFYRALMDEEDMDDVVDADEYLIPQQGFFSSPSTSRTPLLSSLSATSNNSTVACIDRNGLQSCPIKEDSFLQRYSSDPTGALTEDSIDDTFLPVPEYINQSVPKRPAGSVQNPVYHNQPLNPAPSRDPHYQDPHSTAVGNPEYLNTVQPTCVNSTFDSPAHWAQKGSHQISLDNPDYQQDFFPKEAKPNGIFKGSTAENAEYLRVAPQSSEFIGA
# protocol-text: MTS assay, Ba/F3 cells, EFGR SVD
# Format: cell-based
# reported-conditions: 72 hours
Number in µM, nothing else.

chemical-smiles	measure-unit	IC50
C=CC(=O)N1CCC[C@@H](n2nc(C(=O)Nc3ccc(CN4CCn5ccnc5C4)c(C)c3)c3c(N)ncnc32)C1	µM	5.59
C=CC(=O)N1CCC[C@@H](n2nc(C(=O)Nc3ccc(Oc4ccn5ncnc5c4)c(Cl)c3)c3c(N)ncnc32)C1	µM	2.61
C=CC(=O)N1CCC[C@@H](n2nc(C(=O)Nc3ccc(C(=O)N4CCn5ncnc5C4)c(C)c3)c3c(N)ncnc32)C1	µM	7.72

Entry `C=CC(=O)N1CCC[C@@H](n2nc(C(=O)Nc3cc(C)cc(CC(=O)N(C)C)c3)c3c(N)ncnc32)C1` , IC50 reported as 7.62
